# measurementTarget: human IL-6 (human, UniProt P05231 30-212)
# Sequence (P05231 30-212 limits assumed): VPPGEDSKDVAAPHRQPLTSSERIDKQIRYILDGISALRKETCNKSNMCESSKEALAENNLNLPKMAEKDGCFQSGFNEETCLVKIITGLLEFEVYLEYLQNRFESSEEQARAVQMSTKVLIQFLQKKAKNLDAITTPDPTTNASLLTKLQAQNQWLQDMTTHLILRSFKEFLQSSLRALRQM
# experimentDescription: SPR Biacore, purified, Protein A capture, 37 C
Assign koff to each entry below.
Please give a number only; it is taken to be in s⁻¹.

Tell me its koff given Anti-IL-6 antibody, heavy chain S35H, G66D, L100S / light chain M32L, M50D, N52S, M88Q (antibody, IgG1, V domains shown, IgG1; variable domains only; VL is variant III) VH: EVQLVESGGGLVQPGGSLRLSCAASGFTFSPFAMHWVRQAPGKGLEWVAKISPGGSWTYYSDTVTDRFTFSLDTSKSTAYLQMNSLRAEDTAVYYCARQSWGYYALDIWGQGTLVTVSS VL: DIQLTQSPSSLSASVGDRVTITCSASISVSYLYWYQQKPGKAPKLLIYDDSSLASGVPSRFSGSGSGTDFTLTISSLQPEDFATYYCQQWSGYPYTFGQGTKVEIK as the entry.
0.000424

Tell me its koff given Anti-IL-6 antibody, heavy chain WT / light chain WT (antibody, IgG1, V domains shown, IgG1; variable domains only; also called parent; wild-type) VH: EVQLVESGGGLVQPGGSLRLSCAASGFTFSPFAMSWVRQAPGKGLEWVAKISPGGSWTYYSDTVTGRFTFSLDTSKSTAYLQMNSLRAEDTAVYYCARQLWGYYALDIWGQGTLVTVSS VL: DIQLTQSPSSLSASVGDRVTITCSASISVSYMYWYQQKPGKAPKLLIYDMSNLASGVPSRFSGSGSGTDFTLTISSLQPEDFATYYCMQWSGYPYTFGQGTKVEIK as the entry.
0.000132

Tell me its koff given Anti-IL-6 antibody, heavy chain S35H, G66D / light chain M32L, M50D, N52S, M88Q (antibody, IgG1, V domains shown, IgG1; variable domains only; VL is variant III) VH: EVQLVESGGGLVQPGGSLRLSCAASGFTFSPFAMHWVRQAPGKGLEWVAKISPGGSWTYYSDTVTDRFTFSLDTSKSTAYLQMNSLRAEDTAVYYCARQLWGYYALDIWGQGTLVTVSS VL: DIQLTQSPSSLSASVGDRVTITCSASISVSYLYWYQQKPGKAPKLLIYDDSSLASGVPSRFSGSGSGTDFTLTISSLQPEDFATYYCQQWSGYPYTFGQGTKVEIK as the entry.
0.000238

Tell me its koff given Anti-IL-6 antibody, heavy chain S35H, G66D, L100T / light chain M32L, M50D, N52S, M88Q (antibody, IgG1, V domains shown, IgG1; variable domains only; VL is variant III) VH: EVQLVESGGGLVQPGGSLRLSCAASGFTFSPFAMHWVRQAPGKGLEWVAKISPGGSWTYYSDTVTDRFTFSLDTSKSTAYLQMNSLRAEDTAVYYCARQTWGYYALDIWGQGTLVTVSS VL: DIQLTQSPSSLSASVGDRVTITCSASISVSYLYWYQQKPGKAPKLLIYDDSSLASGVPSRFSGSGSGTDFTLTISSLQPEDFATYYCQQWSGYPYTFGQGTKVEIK as the entry.
0.000481

Tell me its koff given Anti-IL-6 antibody, heavy chain S35H, G66D, L100A / light chain M32L, M50D, N52S, M88Q (antibody, IgG1, V domains shown, IgG1; variable domains only; VL is variant III) VH: EVQLVESGGGLVQPGGSLRLSCAASGFTFSPFAMHWVRQAPGKGLEWVAKISPGGSWTYYSDTVTDRFTFSLDTSKSTAYLQMNSLRAEDTAVYYCARQAWGYYALDIWGQGTLVTVSS VL: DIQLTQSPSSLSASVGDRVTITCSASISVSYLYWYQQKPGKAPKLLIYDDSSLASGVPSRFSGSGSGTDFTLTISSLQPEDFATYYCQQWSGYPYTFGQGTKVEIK as the entry.
0.000406

The measurements presented in this section are drawn from patent US20240209076A1.
